# System: Mus musculus
# Test method notes: Antiinflammatory activity against carrageenan-induced paw edema in Swiss albino mouse assessed as swelling thickness at 100 mg/kg, po after 270 mins
# Assay type: functional
Measurement label: Activity

CCSc1nc(-c2ccccc2Cl)n[nH]1; 42.2 10^-2mm

Sure, the documented Activity for CSc1nc(-c2ccccc2Cl)n[nH]1 is 52.8 10^-2mm

Sure, the documented Activity for CCS(=O)(=O)c1nc(-c2ccccc2Cl)n[nH]1 is 35 10^-2mm

---

# System: Mus musculus
# Test method notes: Antiinflammatory activity against carrageenan-induced paw edema in Swiss albino mouse assessed as swelling thickness at 50 mg/kg, po after 90 mins
# Assay type: functional
Measurement label: Activity

Here is how some compounds turned out for Activity.
CCSc1nc(-c2ccc(Cl)cc2)n[nH]1; 39.1 10^-2mm
CCS(=O)(=O)c1nc(-c2ccccc2Cl)n[nH]1; 36.2 10^-2mm
CCS(=O)(=O)c1nc(-c2ccc(Cl)cc2)n[nH]1; 35.4 10^-2mm
CSc1nnc(-c2ccc(Cl)cc2)[nH]1; 37.4 10^-2mm

Sure, the documented Activity for CS(=O)(=O)c1nc(-c2ccc(Cl)cc2)n[nH]1 is 43.6 10^-2mm

Sure, the documented Activity for CCS(=O)(=O)c1nc(-c2ccccc2)n[nH]1 is 39.2 10^-2mm
